This listing pairs compounds with measured Ki.
# TGT: Human GGT1 (hGGT) (Homo sapiens)
# Sequence (P19440 381-569 limits assumed): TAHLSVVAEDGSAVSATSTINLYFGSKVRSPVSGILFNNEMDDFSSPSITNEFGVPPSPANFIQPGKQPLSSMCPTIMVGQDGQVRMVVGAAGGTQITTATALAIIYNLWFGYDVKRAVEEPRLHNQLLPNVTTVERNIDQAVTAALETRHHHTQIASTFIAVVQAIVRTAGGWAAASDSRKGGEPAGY
# Sequence (P19440 27-380 limits assumed): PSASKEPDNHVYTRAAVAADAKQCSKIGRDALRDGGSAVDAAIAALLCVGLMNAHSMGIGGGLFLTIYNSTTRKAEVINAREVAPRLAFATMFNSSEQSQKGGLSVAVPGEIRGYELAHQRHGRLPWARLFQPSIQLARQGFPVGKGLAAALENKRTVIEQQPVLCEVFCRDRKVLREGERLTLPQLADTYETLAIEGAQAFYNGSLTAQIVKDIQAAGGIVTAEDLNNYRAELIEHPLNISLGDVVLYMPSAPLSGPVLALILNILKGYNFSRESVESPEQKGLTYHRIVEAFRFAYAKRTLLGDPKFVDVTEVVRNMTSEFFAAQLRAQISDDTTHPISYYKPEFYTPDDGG
# PROTOCOL SUMMARY: L-GpNA Transpeptidation Assay with GlyGly as acceptor
# Format: biochemical
# Set-up: lacking the transmembrane domain; made in house; host or cells: Pichia pastoris
# RECORDED CONDITIONS: GlyGly varied, 3 mM L-GpNA; Table 2; read-out: Transpeptidation GlyGly Kis
Write the value in µM as a bare number.

response.value for COc1ccc(Cc2nnc(NS(=O)(=O)c3ccc(Cl)cc3)s2)cc1 (field: Ki) = 13.4

response.value for COc1ccc(Cc2nnc(NS(=O)(=O)c3ccc(OC)cc3)s2)cc1 (field: Ki) = 133

response.value for COc1ccc(Cc2nnc(NS(=O)(=O)c3cccc(Cl)c3)s2)cc1 (field: Ki) = 11.9

---

# TGT: Human GGT1 (hGGT) (Homo sapiens)
# PROTOCOL SUMMARY: D-GpNA Hydrolysis Assay (release of pNA, 405 nm, pH 7.4)
# RECORDED CONDITIONS: read-out: D-GpNA Kii; Table 4
READOUT NAME: pKi
Quick note: pKi means taking -log10 of the concentration in moles per liter.

response.value for COc1ccc(Cc2nnc(NS(=O)(=O)c3ccc(N)cc3)s2)cc1 (field: pKi) = 4.51

---

# System: 786-0 cells
# PROTOCOL SUMMARY: Cytotoxicity in dividing 786-O cells (MTT assay, 72 hours)
# Assay type: cell-based, human
# RECORDED CONDITIONS: dividing 786-O cells, 72 hours; 4320 min; read-out: LD50 (the source's name)
READOUT NAME: CC50
The reply should consist of the numeric value with the unit placed after it.

response.value for COc1ccc(Cc2nnc(NS(=O)(=O)c3cccc4ccccc34)s2)cc1 [Compound 6] (field: CC50) = 2.09 mM

---

# TGT: Human GGT1 (hGGT) (Homo sapiens)
# PROTOCOL SUMMARY: D-GpNA Hydrolysis Assay (release of pNA, 405 nm, pH 7.4)
# RECORDED CONDITIONS: read-out: D-GpNA Kii; Table 5
READOUT NAME: Ki (µM)
Write the value in µM as a bare number.

response.value for Cc1cccc(Cc2nnc(NS(=O)(=O)c3ccc(N)cc3)s2)c1 (field: Ki) = 109

---

# TGT: Human GGT1 (hGGT) (Homo sapiens)
# PROTOCOL SUMMARY: D-GpNA Hydrolysis Assay (release of pNA, 405 nm, pH 7.4)
# RECORDED CONDITIONS: human, pH 7.4, read-out: Fold Activation
# Experimental: Enzyme Isolation: Human GGT1 (P19440), lacking the transmembrane domain, was expressed in Pichia pastoris and isolated as previously described (14). […] The reaction was initiated with the addition of 19 mU GGT. The reaction was incubated at 37° C. and monitored continuously at 405 nm by a Bio-Rad model 680 microplate reader with Microplate Manager 5.2 software (Bio-Rad, Hercules, Calif.). […]
READOUT NAME: maximal fold induction
The reply should be a number, written without any unit.

Field: example entries. Status: answers known.
- COMPOUND: "O=[N+]([O-])c1ccc(S(=O)(=O)Nc2nnc(Cc3ccccc3)s2)cc1"
  READOUT NAME: "maximal fold induction"
  VALUE REPORTED: 5.72
- COMPOUND: "O=[N+]([O-])c1ccc(Cc2nnc(NS(=O)(=O)c3ccc([N+](=O)[O-])cc3)s2)cc1"
  READOUT NAME: "maximal fold induction"
  VALUE REPORTED: 4
- COMPOUND: "O=[N+]([O-])c1ccc(S(=O)(=O)Nc2nnc(Cc3ccc(Cl)cc3)s2)cc1"
  READOUT NAME: "maximal fold induction"
  VALUE REPORTED: 4.5
- COMPOUND: "Cc1cccc(Cc2nnc(NS(=O)(=O)c3ccc([N+](=O)[O-])cc3)s2)c1"
  READOUT NAME: "maximal fold induction"
  VALUE REPORTED: 4.42
- COMPOUND: "O=[N+]([O-])c1ccc(S(=O)(=O)Nc2nnc(Cc3cccc(Cl)c3)s2)cc1"
  READOUT NAME: "maximal fold induction"
  VALUE REPORTED: 4.51
- COMPOUND: "COc1ccc(Cc2nnc(NS(=O)(=O)c3ccc([N+](=O)[O-])cc3)s2)cc1"
  READOUT NAME: "maximal fold induction"
  VALUE REPORTED: 5.43
- COMPOUND: "O=[N+]([O-])c1ccc(S(=O)(=O)Nc2nnc(Cc3ccc(F)cc3)s2)cc1"
  READOUT NAME: "maximal fold induction"
  VALUE REPORTED: 3.52

Alright, here's another compound for you.
response.value for Cc1ccc(Cc2nnc(NS(=O)(=O)c3ccc([N+](=O)[O-])cc3)s2)cc1 (field: maximal fold induction) = 4.29

---

# TGT: Human GGT1 (hGGT) (Homo sapiens)
# PROTOCOL SUMMARY: L-GpNA Transpeptidation Assay with GlyGly as acceptor
# Type: biochemical
# Design: lacking the transmembrane domain; made in house; host or cells: Pichia pastoris
# RECORDED CONDITIONS: L-GpNA varied, 40 mM GlyGly; Table 2; read-out: Transpeptidation L-GpNA Kii
READOUT NAME: pKi
Quick note: pKi means taking -log10 of the concentration in moles per liter.

Field: example entries. Status: answers known.
- COMPOUND: "COc1ccc(Cc2nnc(NS(=O)(=O)c3ccc(Cl)cc3)s2)cc1 [Compound 10]"
  TGT: "Human GGT1 (hGGT) (Homo sapiens)"
  READOUT NAME: "pKi"
  VALUE REPORTED: 4.49
- COMPOUND: "COc1ccc(Cc2nnc(NS(=O)(=O)c3ccc(NO)cc3)s2)cc1 [Compound 5]"
  TGT: "Human GGT1 (hGGT) (Homo sapiens)"
  READOUT NAME: "pKi"
  VALUE REPORTED: 4.19
- COMPOUND: "COc1ccc(Cc2nnc(NS(=O)(=O)c3cccc4ccccc34)s2)cc1 [Compound 6]"
  TGT: "Human GGT1 (hGGT) (Homo sapiens)"
  READOUT NAME: "pKi"
  VALUE REPORTED: 4.13

Alright, here's another compound for you.
response.value for COc1ccc(Cc2nnc(NS(=O)(=O)c3ccc(Cl)cc3Cl)s2)cc1 [Compound 4] (field: pKi) = 4.80

---

# TGT: Human GGT1 (hGGT) (Homo sapiens)
# PROTOCOL SUMMARY: L-GpNA Transpeptidation Assay with GlyGly as acceptor
# Format: biochemical
# Set-up: lacking the transmembrane domain; made in house; host or cells: Pichia pastoris
# RECORDED CONDITIONS: GlyGly varied, 3 mM L-GpNA; Table 2; read-out: Transpeptidation GlyGly Kis
pKi: −log10 of the molar value.
Hi, to clarify the labels: fulfilled covers pKi from 5 upward, not fulfilled covers anything below 5.

Lookup: Identify whether the reported pKi of the following compound is 5 or greater: COc1ccc(Cc2nnc(NS(=O)(=O)c3cccc4ccccc34)s2)cc1
Found: not fulfilled

Lookup: Identify whether the reported pKi of the following compound is 5 or greater: COc1ccc(Cc2nnc(NS(=O)(=O)c3ccc(NO)cc3)s2)cc1
Found: not fulfilled

Lookup: Identify whether the reported pKi of the following compound is 5 or greater: COc1ccc(Cc2nnc(NS(=O)(=O)c3ccc(Cl)cc3Cl)s2)cc1
Found: fulfilled

Lookup: Identify whether the reported pKi of the following compound is 5 or greater: COc1ccc(Cc2nnc(NS(=O)(=O)c3ccccc3)s2)cc1
Found: not fulfilled

Lookup: Identify whether the reported pKi of the following compound is 5 or greater: COc1ccc(Cc2nnc(NS(=O)(=O)c3ccc(C(C)(C)C)cc3)s2)cc1
Found: not fulfilled

Lookup: Identify whether the reported pKi of the following compound is 5 or greater: COc1ccc(Cc2nnc(NS(=O)(=O)c3ccc(C(F)(F)F)cc3)s2)cc1
Found: not fulfilled

src = patent US9540337B2
